Where do the numbers come from? From PubChem BioAssay (NCI).

Tested on: M14 melanoma
assay details: NCI tumour cell line growth inhibition, 48 h
compounds and their reported TGI

compound	result
CCOC(=O)/C(C#N)=C\Sc1ccccc1	35.6 µM
Cc1ccc(C)c(NC(=O)C(=O)C2C(=O)N(c3ccccc3)N=C2N)c1 (configuration not stated)	> 100 µM
CC1=NN(C(=O)CC(=O)NC(=O)/C=C\c2ccccc2)C(=O)C1N=Nc1ccc([N+](=O)[O-])cc1 (configuration not stated)	> 100 µM
Nc1nc(Cl)c(N)c(NCC2(CO)CCC(CCc3ccccc3)C2)n1 (configuration not stated)	27.4 µM

TGI in this record for "CN(C)CCNC(=O)c1cccc2c1Oc1cccc([N+](=O)[O-])c1O2" : 30 µM

Kindly note the recorded TGI for CC(C)OC(=O)C1(C(C)C)CCc2ccc(C(=O)CCC(=O)O)cc21 (configuration not stated) , which is > 100 µM

The value of TGI measured for the compound "C[C@H](c1ccccc1)n1c(N)c(-c2nc3ccccc3s2)c2ccc([N+](=O)[O-])cc2c1=O" turned out to be > 100 µM

For "O=C1CC(Cc2n[nH]c3c2CCCC3)CC(=O)N1" the compound record lists TGI as > 100 µM

Looking up "CSc1ccc(NC(=O)Nc2cc(C)ccn2)cc1" , I see its TGI listed as > 100 µM

Entry "CCOC(=O)CC(=O)Nc1cccc2sc3ncccc3c(=O)c12" — recorded TGI = > 100 µM

Just so you know, measured TGI for "COC(=O)c1sc2c(c1C(=O)OC)C(=NC(C)(C)C)SC2=NC(C)(C)C" came out at 32.2 µM

The value of TGI measured for the compound "CN(C)N=Nc1cccc(C(N)=O)c1" turned out to be > 100 µM

Form: compound = NCCCC(N=Cc1nc(-c2ccccc2)oc1O)C(=O)O (configuration not stated) ; TGI = > 100 µM

Reported TGI ( "COC(=O)CSc1nc2[nH]c(SC)c(C(N)=O)c2c(=O)n1-c1ccccc1" ) = > 10 µM

compound NC(=O)C(=O)C1C(=O)N(c2ccccc2)N=C1N (configuration not stated) , TGI observed: > 100 µM

For record "COc1ccc(NC(=O)c2oc3cc(O)ccc3c(=O)c2C)c([N+](=O)[O-])c1" the listed TGI is > 100 µM

---

The compounds listed here are annotated with their TGI.
Tested on: NCI-H23 lung
assay details: NCI tumour cell line growth inhibition, 48 h
State the answer as a number, implicitly in µM.

Here is how some compounds turned out for TGI.
compound	numeric value
CCCCCCCCCC(=O)NC(CCC(=O)N(CCNC(=O)c1nc(-c2ccccc2)oc1-c1ccccc1)Cc1ccccc1)C(=O)O (stereo not given)	33.9
CCC[CH2][Sn]([CH2]CCC)([O]C(=O)c1cc(F)ccc1F)[O]C(=O)c1cc(F)ccc1F	2.02
O=C(O)/C(Cl)=C(Cl)/C=N/NC(=O)c1cc2ccccc2cc1O	41.2

The reported NCI-H23 lung TGI of "COc1cc2c3cc1Oc1c(OC)c(OC)cc4c1[C@@H](Cc1ccc(O)c(c1)Oc1ccc(cc1)C[C@@H]3N(C)CC2)N(C)CC4" is 61.3

---

System: K-562 leukemia
assay details: NCI tumour cell line growth inhibition, 48 h; in the data active = GI50 below about 0.43 µM; inactive = the rest
Response enum: true (1) (active), false (0) (inactive)

Worked cases, answers included:
molecule	qualitative label
c1cc(C2CCCCC2)ccc1-c1cnc2nonc2n1	true (1)
[Cl][Hg][c]1ccc2ccccc2c1	false (0)
C[C@@]1(C(=O)O)CCC[C@]2(C)C1CC[C@]13C[C@@](O)(CO)[C@](O)(CC[C@]12O)C3 (stereo partly drawn)	false (0)
COC(=O)c1c2c(c(C)[n+]([O-])c1C)C(=O)C(NCc1ccc(F)cc1)=CC2=O	false (0)
Cc1cc2c3c([n+](C)c4ccc(F)cc4c3c1)-c1cc(F)ccc1N2C	false (0)
C[C@H]1COCCN1c1nc(-c2cnc(N)cc2C(F)F)nc(N2CCOCC2)n1	false (0)
CC(=O)[CH-]C(=O)c1ccccc1.CC(=O)[CH-]C(=O)c1ccccc1.CC[C@H](/C=C/C(C)[C@H]1CCC2[C@@H]3CC=C4C[C@@H]([O-])CC[C@]4(C)C3CC[C@@]21C)C(C)C.CC[C@H](/C=C/C(C)[C@H]1CCC2[C@@H]3CC=C4C[C@@H]([O-])CC[C@]4(C)C3CC[C@@]21C)C(C)C.Cl.[Ti+4] (stereo partly drawn)	false (0)

Then there is this molecule:
QUERY: Dear colleague, could you share the recorded outcome for "COc1cc2c(NC3CCN(C(C)C)CC3)nc(C3CCCCC3)nc2cc1OCCCN1CCCC1" when you have a moment?
RESULT: false (0)

---

The following compounds are shown together with reported TGI values.
System: NCI/ADR-RES ovarian
assay details: NCI tumour cell line growth inhibition, 48 h
# number only, unit µM dropped from output

Example entries and their recorded answers appear below.
compound	tested target	numeric value
Cc1cc(Cl)nc(N(CCCNc2ccnc3cc(Cl)ccc23)Cc2cccs2)n1	NCI/ADR-RES ovarian	6.53
COc1ccc(/C=C\c2cc(OC)c(OC)c(OC)c2)cc1OC(=O)CC(N)C(=O)O (centres undefined)	NCI/ADR-RES ovarian	0.000534
CN(C)CC1C(=O)O[C@H]2[C@H]1CC/C(COC(=O)NCc1ccc(Cn3c(=O)sn(CCCI)c3=O)cc1)=C\CC[C@@]1(C)O[C@@H]21 (some centres undefined)	NCI/ADR-RES ovarian	30.1
COC(=O)[C@@H](NC(=O)[C@H](N)Cc1ccc(N(CCCl)CCCl)cc1)C(C)C	NCI/ADR-RES ovarian	40.8

// next item, TGI requested
Data point: "Cc1c(Cl)cccc1NC(=O)c1sc2nc3c(cc2c1N)C(=O)CCC3" ; TGI = 12.9

---

Test system: SN12C renal
assay details: NCI tumour cell line growth inhibition, 48 h; in the data active = GI50 below about 0.43 µM; inactive = the rest
Write down one outcome, taken from active, inactive

Consider the worked cases shown below.
compound	qualitative label
CCC[n+]1cc2cc3c(cc2c2c1-c1cc4c(cc1C2)OCO4)OCO3 (tested in a mixture with another compound)	active
CC(=O)[CH-]C(=O)c1ccccc1.CC(=O)[CH-]C(=O)c1ccccc1.CC[C@H](/C=C/C(C)[C@H]1CCC2[C@@H]3CC=C4C[C@@H]([O-])CC[C@]4(C)C3CC[C@@]21C)C(C)C.CC[C@H](/C=C/C(C)[C@H]1CCC2[C@@H]3CC=C4C[C@@H]([O-])CC[C@]4(C)C3CC[C@@]21C)C(C)C.Cl.[Ti+4] (stereo partly specified)	inactive
COc1cc2c(NC3CCN(C(C)C)CC3)nc(C3CCCCC3)nc2cc1OCCCN1CCCC1	inactive
O=c1cc(-c2ccccc2)oc2cc(OCCCCCN3CCOCC3)cc(O)c12	inactive
CCn1cc(C(=O)N/N=C/c2cccs2)c(=O)c2cc(F)c(N3CCNC(C)C3)c(F)c21 (stereo unspecified)	inactive

Attention now turns to another entry.
QUERY: What call does the record list for "CC(C)c1[nH]nc2c(NCc3ccc(-c4ccccn4)cc3)nc(SCCN)nc12" ?
RESULT: active

---

System: RXF 393 renal
assay details: NCI tumour cell line growth inhibition, 48 h
readout name: GI50

Below: 2 molecules and their reported GI50.
molecule	result
CC(=O)[CH-]C(=O)c1ccccc1.CC(=O)[CH-]C(=O)c1ccccc1.CC[C@H](/C=C/C(C)[C@H]1CCC2[C@@H]3CC=C4C[C@@H]([O-])CC[C@]4(C)C3CC[C@@]21C)C(C)C.CC[C@H](/C=C/C(C)[C@H]1CCC2[C@@H]3CC=C4C[C@@H]([O-])CC[C@]4(C)C3CC[C@@]21C)C(C)C.Cl.[Ti+4] (stereo partly drawn)	> 25 µM
Cc1ccc(N=Nc2c(O)ccc3n[nH]nc23)cc1	13.2 µM

Please find the next molecule below.
Entry OC(CN1CCCC2CCCCC21)c1cc2ccccc2c2ccccc12 (stereo not drawn) ; GI50 = 1.71 µM

---

Test system: TK-10 renal
assay details: NCI tumour cell line growth inhibition, 48 h
readout name: TGI

Previously resolved entries follow.
molecule	TGI
Cc1c(NC(=O)CSC(=S)N(C)C)c(=O)n(-c2ccccc2)n1C	> 100 µM
CC(C)(C)C(=O)c1c(C(F)(F)F)n([O-])c2cc(Cl)c(Cl)cc2[n+]1=O	2.26 µM
O=c1[nH]nc(-c2ccccc2)n1-c1cccc([N+](=O)[O-])c1	> 100 µM
Cc1cccc2c1Sc1ccccc1C2NC(=O)CN(C)C (centres undefined)	> 100 µM
COC(=O)[C@]12C3=C(O)C(=O)C[C@H]1OC[C@H]2C=CC3	> 100 µM
C[C@@]1(C(=O)O)CCC[C@]2(C)C1CC[C@]13C[C@@](O)(CO)[C@](O)(CC[C@]12O)C3 (some centres undefined)	> 100 µM
O=C(COC(=O)c1cccc2c(=O)c3ccccc3[nH]c12)Nc1ccc(Cl)cc1	46.5 µM
COc1c2cc([N+](=O)[O-])cc1CN(C(=O)C(F)(F)F)CCOCCN(C(=O)C(F)(F)F)C2	> 100 µM
COc1ccc(C(OCC2OC3(COC(c4ccccc4)(c4ccc(OC)cc4)c4ccc(OC)cc4)C(Oc4nc(=O)ccn43)C2O)(c2ccccc2)c2ccc(OC)cc2)cc1 (centres undefined)	> 100 µM
CCOC(=O)c1c(N2CCOCC2)ncn(-c2cccc(Cl)c2)c1=O	> 100 µM

# TGI (molecule: "CSc1ncc2c(C#N)c3[nH]c4ccccc4n3c(=O)c2n1" ) is > 100 µM

The molecule listed as "Cn1c2c(c3ccccc3c1=O)C(=O)c1ccccc1-2" has a reported TGI of > 100 µM

TGI for "COc1cc2c(c(OC)c1OC)C(=O)[C@@H](O)[C@H]2NC(N)=O" is > 100 µM

Recorded TGI (molecule "COC(=O)c1sc2c(c1C(=O)OC)C(=NC(C)(C)C)SC2=NC(C)(C)C" ): 33.2 µM

Per the record, "CSc1nnc(-c2cc3c([nH]c4ccccc43)c(-c3cccc(O)c3)n2)n1-c1ccc(C)cc1" has TGI of 9.64 µM
